Origin of values: patent US20160264649A1

- assay-target: HIV-1 TR0.11 Env (HIV-1)
- test-protocol: cell-based or functional assay
reported-metric: IC50, TZM-bl pseudovirus neutralization (µg/mL)
Express the result in µg/mL but write the number alone.

For orientation, consider the following solved cases.
1456_A12 (PG16) (TCN-117) (antibody, V domains shown) VH: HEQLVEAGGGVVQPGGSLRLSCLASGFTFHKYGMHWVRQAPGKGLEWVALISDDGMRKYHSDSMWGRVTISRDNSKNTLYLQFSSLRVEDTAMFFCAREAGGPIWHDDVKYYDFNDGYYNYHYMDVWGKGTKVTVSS VL: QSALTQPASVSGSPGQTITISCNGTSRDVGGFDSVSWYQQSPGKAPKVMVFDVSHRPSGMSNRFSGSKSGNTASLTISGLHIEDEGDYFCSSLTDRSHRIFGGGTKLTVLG	3.05
1469_M23 (PG16) (TCN-118) (antibody, V domains shown) VH: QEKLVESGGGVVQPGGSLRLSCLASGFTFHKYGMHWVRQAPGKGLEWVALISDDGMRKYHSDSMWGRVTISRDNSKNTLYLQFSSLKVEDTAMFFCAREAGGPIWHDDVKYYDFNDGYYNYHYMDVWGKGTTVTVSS VL: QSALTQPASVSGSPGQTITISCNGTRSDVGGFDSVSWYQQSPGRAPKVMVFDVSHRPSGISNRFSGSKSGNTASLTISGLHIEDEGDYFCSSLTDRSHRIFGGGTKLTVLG	7.52

In the following, a different binder is considered.
Q: Bench note: what IC50, TZM-bl pseudovirus neutralization did 1489_I13 (PG16) (TCN-120) (antibody, V domains shown) VH: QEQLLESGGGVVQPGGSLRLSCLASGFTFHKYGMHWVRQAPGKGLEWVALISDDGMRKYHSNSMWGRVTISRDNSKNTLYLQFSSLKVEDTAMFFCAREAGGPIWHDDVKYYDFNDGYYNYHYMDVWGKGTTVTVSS VL: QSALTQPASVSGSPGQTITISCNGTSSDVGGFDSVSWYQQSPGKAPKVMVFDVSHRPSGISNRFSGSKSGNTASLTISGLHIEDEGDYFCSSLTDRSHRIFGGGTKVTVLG show?
Result: 10.9
